Assign protein stability index to each entry below.
B1: SFRS1 (parent)
chain: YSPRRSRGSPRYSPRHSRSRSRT

# Variants of: B1
# protocol_summary: protein stability index of a GFP-peptide fusion (GPS, HEK-293T) (PSI 1-6); higher = more stable;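 further: lentivirally expressed fusions sorted by FACS into six bins by GFP to DsRed ratio, PSI derived from sequencing read proportions per bin multiplied by bin number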
# condition_info: c terminus: native
Answers are plain numbers.

Example entries and their recorded answers appear below.
[
  {
    "mutation": "T23H",
    "recorded_measurement": 2.64
  },
  {
    "mutation": "R18C",
    "recorded_measurement": 2.61
  },
  {
    "mutation": "S19W",
    "recorded_measurement": 3.76
  },
  {
    "mutation": "S2G",
    "recorded_measurement": 4.27
  }
]

List the reported protein stability index of each variant below.
1. R22T
2. S6K
3. G8T

1: 3.97; 2: 3.01; 3: 3.79

Go through the list and state protein stability index for each entry.
1. P10C
2. Y1C
3. R7H
4. S9K
5. P3Y
6. T23M
7. R4K

1. 3.45
2. 3.99
3. 2.61
4. 3.83
5. 4.24
6. 3.33
7. 3.71

Quick batch: protein stability index for everything below.
1. P3I
2. S9C

1: 2.8; 2: 1.83
